PROTOCOL SUMMARY: RP, Thermo Scientific Acclaim RSLC 120 C18, 100 × 2.1 mm, 2.2 µm, 30 °C, 0.2 mL/min, estimated dead time 1.1 min; A: 90% water + 10% methanol + 0.01% formic acid + 5 mM ammonium formate, pH 3.61; B: methanol + 0.01% formic acid + 5 mM ammonium formate, pH 3.61; gradient (min/%B) 0/1 1/1 2/39 13/99.9 15/99.9 15.1/1 20.1/1
MEASUREMENT SETUP: stereoisomer not certain
Where LC retention time equals or exceeds 6 min, the correct label is Condition met; where it does not, the label is Condition not met.

Check if LC retention time >= 6 min (inclusive). Item: CCOC(=O)C(C)OC(=O)c1cc(Oc2ccc(C(F)(F)F)cc2Cl)ccc1[N+](=O)[O-] (centres undefined)
Condition met

Check if LC retention time >= 6 min (inclusive). Item: `Cc1cccc(C(=O)O)c1N(Cn1cccn1)C(=O)C(=O)O`
Condition not met

Check if LC retention time >= 6 min (inclusive). Item: O=C(O)Cc1c[nH]c2ccc(O)cc12 [5-Hydroxyindole-3-acetic acid]
Condition not met

Check if LC retention time >= 6 min (inclusive). Item: CC(N)Cc1ccccc1F (centres undefined)
Condition not met

Check if LC retention time >= 6 min (inclusive). Item: `CCCCCCCCCCCCCC[N+](C)(C)Cc1ccccc1`
Condition met

Check if LC retention time >= 6 min (inclusive). Item: COCCC(N)C(=O)O (centres undefined)
Condition met

Check if LC retention time >= 6 min (inclusive). Item: COCC(C)N(C(=O)C(=O)O)c1c(C)csc1C (centres undefined) [Dimethenamide-OXA]
Condition met

Check if LC retention time >= 6 min (inclusive). Item: `COP(=S)(OC)Oc1ccc([N+](=O)[O-])c(Cl)c1`
Condition met
